B1: Twister Ribozyme (parent)
chain: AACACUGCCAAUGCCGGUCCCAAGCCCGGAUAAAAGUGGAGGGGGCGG

- Variants of: B1
- Method Description: self-cleavage, relative activity (ratio to wild type); higher = more cleavage; co-transcriptional

| Mutations | self-cleavage |
| --- | --- |
| C26G A40G | 0.127 |
| A35C G44A | 0.87 |
| G24C U31G | 0.0739 |
| C14U G24C | 0.102 |
| A30U A32U | 0.879 |
| G36A A40U | 0.124 |
| U31C A40G | 0.0669 |
| A2C G39U | 0.0688 |
| A30G G42U | 0.377 |
| G16U C19U | 0.697 |
| U6C G41U | 0.113 |
| C8U U12G | 0.429 |
| U37C A40C | 0.0942 |
| C14G C15G | 0.243 |
| A30G A33U | 0.919 |
| U18G G38C | 0.102 |
| C9A C20U | 0.15 |
| C21U G28C | 0.0826 |
| G16U A34U | 0.577 |
| C19G U31G | 0.467 |
| U12C A30U | 1.04 |
| C26G C27A | 0.107 |
| C26U A30G | 0.419 |
| C9U G42A | 0.153 |
| G36C G48U | 0.455 |
| G13U G43C | 0.137 |
| G28U G45U | 0.375 |
| C9A C15G | 0.0772 |
| A23G G45A | 0.332 |
| A4C U6A | 0.0472 |
| C9A A40C | 0.108 |
| A10U G38C | 0.933 |
| U18G C19U | 0.105 |
| C14A C21A | 0.128 |
| A10U U31C | 0.919 |
| G36U G39C | 0.15 |
| G16A C27A | 0.858 |
| A30C G48A | 0.576 |
| C19G C25G | 0.124 |
| G16C G48C | 0.709 |
| A11G C26U | 0.466 |
| A23C G43C | 0.123 |
| G17U A40U | 0.145 |
| A2U C21A | 0.0621 |
| A10U A11U | 1.14 |
| U6G A10G | 0.644 |
